- STUDY SYSTEM: DNA repair protein RAD52 homolog (Homo sapiens, UniProt P43351)
- Sequence (P43351 whole entry): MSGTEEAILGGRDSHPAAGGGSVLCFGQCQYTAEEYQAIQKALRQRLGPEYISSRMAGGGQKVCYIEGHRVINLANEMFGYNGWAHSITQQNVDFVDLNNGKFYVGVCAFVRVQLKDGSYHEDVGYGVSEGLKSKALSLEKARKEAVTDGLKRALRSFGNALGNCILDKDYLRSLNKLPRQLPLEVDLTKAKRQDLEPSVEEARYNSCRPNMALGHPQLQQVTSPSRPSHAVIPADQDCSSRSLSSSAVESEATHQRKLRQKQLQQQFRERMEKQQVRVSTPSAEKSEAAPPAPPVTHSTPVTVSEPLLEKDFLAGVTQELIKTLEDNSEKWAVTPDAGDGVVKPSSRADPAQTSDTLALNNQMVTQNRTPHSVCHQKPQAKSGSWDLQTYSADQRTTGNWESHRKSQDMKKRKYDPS
- Assay type: functional, biochemical
The source made the active and inactive calls.
AC50 values by entry
ATTRIBUTE MEASURED: AC50

| COMPOUND | VALUE OBSERVED |
| --- | --- |
| CC(=O)Nc1cccc(NC(=N)Nc2nc(C)cc(C)n2)c1 | 18.8 µM (active) |
| CC(C)OCC(O)CN1CCN(CCN2C(=O)c3cccc4cccc(c34)C2=O)CC1 (stereo not given) | 3.93 µM (active) |
| C[C@]12CC[C@H](OC(=O)[C@@H](N)CCCCN)C[C@@H]1CC[C@@H]1[C@@H]2CC[C@@]2(C)[C@H]1CC[C@]2(C)O | 1.93 µM (active) |
| CN1CCc2c(sc(N)c2C(=O)O)C1 | 11.7 µM (active) |
| COc1cc(C(=O)NC2CCN(C)CC2)ccc1Nc1ncc2c(n1)N(CCc1ccccc1)CCC(=O)N2C | 8.71 µM (active) |
